# Read-out: matrix metalloproteinase-10 (MMP10), MMP10 (gene 4319)
# ASSAY COMMENT: LTEA_HepaRG_MMP10: Life Technologies and Expression Analysis (LTEA) Assay for matrix metalloproteinase-10 (MMP10) using HepaRG (AID 2283517)
# CONDITION PARAMETERS: mRNA level, 48 h; actives raise or lower the signal
Active and inactive are the calls of the source. The calls were made as follows: active = hit-call score of the fitted dose curve at least 0.9, where 1 is the maximum; inactive = score below 0.9.
Outcomes: yes (1) = active, no (0) = inactive

# COMPOUND, CATEGORY
measured = [
    ("O=C(O)CC(O)(CC(=O)O)C(=O)O", "no (0)"),
    ("CCCCCCCCCC[N+](C)(C)[O-]", "no (0)"),
    ("CC1=C(C)S(=O)(=O)CCS1(=O)=O", "no (0)"),
    ("COC(=O)[C@H]1[C@H]2C[C@@H]3c4[nH]c5cc(OC)ccc5c4CCN3C[C@H]2C[C@@H](OC(=O)c2cc(OC)c(OC)c(OC)c2)[C@@H]1OC", "yes (1)"),
    ("CC(C)NCC(O)c1ccc(O)c(O)c1 (stereo not given)", "no (0)"),
    ("CC(C)c1cccc(C(C)C)c1", "no (0)"),
    ("O=NO", "no (0)"),
    ("C/C=C/c1ccc(OC)cc1", "no (0)"),
    ("COc1ccc(C(=O)Nc2nc3ccccc3c(NCc3ccccc3)c2C#N)cc1", "no (0)"),
    ("OCC(O)CO", "no (0)"),
]
